From: patent US20250011363A1

biological target: acetylcholine receptor; assay: SPR, AchR immobilised on CM5 chip, peptide 10 uM
OBSERVABLE: Binding affinity (RU)

Please review the entries below; each comes with its answer.
RKASIK [6mer-1-975]    22
KKTPGR [6mer-1-1045]    27
RRPCFR [6mer-1-977]    43
RFPDKK [6mer-2-625]    33
KKKSFK [6mer-1-1051]    43

A = KRNDFK [6mer-1-939]
B = KRATVR [6mer-1-989]
C = KADGRK [6mer-2-687]
Prompt line: Sort these binders on Binding affinity (RU) so the largest reading comes first. Put the labels in the requested order and list them out.
Response line: A, B, C
(A: 41 RU, B: 27 RU, C: 16 RU)
